Tested on: blackgrass (Alopecurus myosuroides)
Assay: Test A postemergence application, visual injury rating 0-100
Type: in vivo
Conditions: Postemergence, 16 g ai/ha, greenhouse 10 days; 0 no effect, 100 complete control
RECORDED_ENDPOINT: Blackgrass plant response rating (0 to 100 scale)

CCOC(=O)C1=CCC(NC(=O)C2(C)CN(c3cc(Cl)cc(Cl)c3)C(=O)O2)C1 (stereo not drawn) [Compound 113] ... 0
CC1(C(=O)NC2CC(C(=O)O)C2)CN(c2cc(F)cc(Cl)c2)C(=O)O1 (racemic) [Compound 139] ... 90
CCOC(=O)C1=CCC(NC(=O)C2(C)CN(c3cc(F)cc(F)c3)C(=O)O2)C1 (stereo not drawn) [Compound 111] ... 0
C=CC1(C(=O)NC2CC(C(=O)OC)C2)CN(c2cc(F)cc(F)c2)C(=O)O1 (stereo not drawn) [Compound 175] ... 60
COC(=O)C1C=CC(NC(=O)C2(C)CN(c3cc(F)cc(F)c3)C(=O)O2)C1 (stereo not drawn) [Compound 92] ... 0
CC(C)COC(=O)C1=CCC(NC(=O)C2(C)CN(c3cc(Cl)cc(Cl)c3)C(=O)O2)C1 (stereo not drawn) [Compound 156] ... 70
CC(C)OC(=O)C1=CCC(NC(=O)C2(C)CN(c3cc(F)cc(F)c3)C(=O)O2)C1 (stereo not drawn) [Compound 99] ... 0
CC1(C(=O)NC2CC=C(C(=O)O)C2)CN(c2cc(F)cc(Cl)c2)C(=O)O1 (stereo not drawn) [Compound 160] ... 0
CC1(C(=O)NC2CC=C(C(=O)OCC(F)(F)F)C2)CN(c2cc(Cl)cc(Cl)c2)C(=O)O1 (stereo not drawn) [Compound 96] ... 80
CC(C)COC(=O)C1=CCC(NC(=O)C2(C)CN(c3cc(F)cc(F)c3)C(=O)O2)C1 (stereo not drawn) [Compound 98] ... 80
CC1(C(=O)NC2CC=C(C(=O)NS(=O)(=O)c3ccccc3)C2)CN(c2cc(F)cc(F)c2)C(=O)O1 (racemic) [Compound 104] ... 0
CC1(C(=O)NC2CC=C(C(=O)O)C2)CN(c2cc(F)cc(Cl)c2)C(=O)O1 (stereo not drawn) [Compound 159] ... 80
C=CC1(C(=O)NC2CC(C(=O)OC)C2)CN(c2cc(F)cc(F)c2)C(=O)O1 (stereo not drawn) [Compound 173] ... 90
CSCCOC(=O)C1=CCC(NC(=O)C2(C)CN(c3cc(Cl)cc(Cl)c3)C(=O)O2)C1 (stereo not drawn) [Compound 146] ... 0
CC(C)COC(=O)C1=CCC(NC(=O)C2(C)CN(c3cc(F)cc(Cl)c3)C(=O)O2)C1 (stereo not drawn) [Compound 143] ... 0
CC1(C(=O)NC2C=CC(C(=O)O)C2)CN(c2cc(F)cc(F)c2)C(=O)O1 (stereo not drawn) [Compound 131] ... 90
COC(=O)C1=CCC(NC(=O)C2(C)CN(c3cc(Cl)cc(Cl)c3)C(=O)O2)C1 (stereo not drawn) [Compound 149] ... 90
CC1(C(=O)NC2C=CC(C(=O)NO)C2)CN(c2cc(F)cc(F)c2)C(=O)O1 (stereo not drawn) [Compound 137] ... 0

====

Test system: rice (Oryza sativa)
Test: Test B flooded paddy test, visual plant response rating 0-100
Format: in vivo
Conditions: 250 g ai/ha, Flood, applied to paddy water, evaluated after 13 days
Below, each entry is listed with its recorded Plant response rating, Rice (0 to 100 scale, 0 is no effect and 100 is complete control).
RECORDED_ENDPOINT: Plant response rating, Rice (0 to 100 scale, 0 is no effect and 100 is complete control)

COC(=O)C1CC(NC(=O)C2(C)CN(c3cc(F)cc(F)c3)C(=O)O2)CO1 (stereo not shown) [Compound 29] ... 0
CC1(C(=O)NC2CC=C(C(=O)O)C2)CN(c2cc(F)cc(F)c2)C(=O)N1 (stereo not shown) [Compound 182] ... 15
CC1(C(=O)NC2CC=C(C(=O)O)C2)CN(c2cc(Cl)cc(Cl)c2)C(=O)O1 (stereo not shown) [Compound 72] ... 85
CC(C)OC(=O)C1=CCC(NC(=O)C2(C)CN(c3cc(Cl)cc(Cl)c3)C(=O)O2)C1 (stereo not shown) [Compound 106] ... 10
CCOC(=O)C1C=CC(NC(=O)C2(C)CN(c3cc(F)cc(F)c3)C(=O)O2)C1 (stereo not shown) [Compound 28] ... 70
CC1(C(=O)NC2CC=C(C(=O)OCC(F)F)C2)CN(c2cc(Cl)cc(Cl)c2)C(=O)O1 (stereo not shown) [Compound 154] ... 95
CSCCOC(=O)C1=CCC(NC(=O)C2(C)CN(c3cc(F)cc(Cl)c3)C(=O)O2)C1 (stereo not shown) [Compound 135] ... 65
CC1(C(=O)NC2C=CC(C(=O)O)C2)CN(c2cc(F)cc(Cl)c2)C(=O)O1 (stereo not shown) [Compound 6] ... 35
CC1(C(=O)NC2CC=C(C(=O)OCC(F)(F)F)C2)CN(c2cc(F)cc(F)c2)C(=O)O1 (stereo not shown) [Compound 1] ... 80
C=CC1(C(=O)NC2CC(C(=O)OC)C2)CN(c2cc(F)cc(F)c2)C(=O)O1 (stereo not shown) [Compound 175] ... 0
C=CC1(C(=O)NC2CC(C(=O)OC)C2)CN(c2cc(F)cc(F)c2)C(=O)O1 (stereo not shown) [Compound 173] ... 75
CONC(=O)C1CC(NC(=O)C2(C)CN(c3cc(F)cc(F)c3)C(=O)O2)CO1 (stereo not shown) [Compound 39] ... 0
COC(=O)C1CCC(NC(=O)C2(C)CN(c3cc(F)cc(F)c3)C(=O)O2)C1 (stereo not shown) [Compounds 10] ... 10
C=CC1(C(=O)NC2COC(C(=O)OC)C2)CN(c2cc(F)cc(F)c2)C(=O)O1 (stereo not shown) [Compound 171] ... 45
COC(=O)C1C=CC(NC(=O)C2(C)CN(c3cc(Cl)cc(Cl)c3)C(=O)O2)C1 (stereo not shown) [Compound 42] ... 15
CC1(C(=O)NC2C=CC(C(=O)OC3CCCC3)C2)CN(c2cc(F)cc(F)c2)C(=O)O1 (stereo not shown) [Compound 57] ... 20

Values compiled from patent US20260285850A1.
